# TARGET_OF_ASSAY: KRAS(G12D) (Homo sapiens, UniProt P01116, G12D)
# Sequence (P01116 1-188 isoform P01116-2 G12D): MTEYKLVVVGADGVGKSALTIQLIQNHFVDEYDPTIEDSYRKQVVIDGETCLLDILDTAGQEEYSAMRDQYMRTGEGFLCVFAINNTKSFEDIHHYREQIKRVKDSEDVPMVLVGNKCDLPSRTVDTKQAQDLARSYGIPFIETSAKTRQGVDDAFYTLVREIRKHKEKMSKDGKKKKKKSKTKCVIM
# TEST: cell-based
# Type: cell-based
# Parameters: Cell lines SW1990 and GP2D that express KRAS(G12D); host or cells: SW1990
# COND: SW1990, read-out: WB data SW1990 DMax
# Description: Cell lines were cultured according to ATCC, JCRB and Sigma Aldrich recommendations. Cells were then washed with cold PBS, aspirated and cold RIPA buffer containing a protease/phosphatase inhibitor cocktail was added to lyse cells. After centrifugation, the total protein concentrations of cell lysates were determined using the BCA protein assay. […] Fluorescence imaging and quantitation was performed using a LI-COR Odyssey. Results was analyzed using GraphPad Prism 7 software. […]
Counter-ions that a name gives are not always drawn.
# Dmax per record follows

Example results:
| COMPOUND | Dmax |
| --- | --- |
| C#Cc1cccc2cc(O)cc(-c3ncc4c(N5CC6CCC(C5)N6)nc(OCC5(CN6CCN(CC7CCN(c8ccc9c(c8)n(C)c(=O)n9C8CCC(=O)NC8=O)CC7)CC6)CC5)nc4c3F)c12 (stereo not drawn) | > 50% |
| C#Cc1cccc2cc(O)cc(-c3ncc4c(N5CC6CCC(C5)N6)nc(OCC5(CN6CCN(CC7CCN(c8ccc9c(c8)C(=O)N(C8CCC(=O)N(C)C8=O)C9=O)CC7)CC6)CC5)nc4c3F)c12 (stereo not drawn) | 10 to 50% |

Next:
**Q:** Reported Dmax for C#Cc1c(F)ccc2cc(O)cc(-c3ncc4c(N5C[C@H]6CC[C@@H](C5)N6)nc(OCC5(CN6CC(C#Cc7ccc8c(c7)CN(C7CCC(=O)NC7=O)C8=O)C6)CC5)nc4c3F)c12 (stereo partly drawn) [Compound 90, formate] : what is it?
**A:** 10 to 50%
